System: NCI-H226 lung
Experiment: NCI-60 one-dose screen, 48 h (100 = growth as untreated, 0 = no growth, -100 = all killed)
Conditions: 10 µM unless noted
About 83,000 compounds went through this panel and 20% of them were active in at least one assay; those are over-represented in the sample as a whole.
param class (str): category from growth; see ranges low-valued: < 50%; mid-valued: ≥ 50% and < 90%; high-valued: ≥ 90%

                                   compound    test_system  group_label
0  Clc1nc(Cl)c2ncn(C/C=C\Cn3cnc4c(Cl)nc(Cl)nc43)c2n1  NCI-H226 lung   low-valued
1  C=CC(=O)Nc1cccc(Nc2nc(Nc3ccc(N4CCN(C(C)=O)CC4)cc3OC)ncc2C(F)(F)F)c1  NCI-H226 lung   low-valued

**Q:** For the record Cc1cc2c(-c3nc4ccccn4c3N)c(O)c(O)cc2c(O)c1-c1c(C)cc2c(-c3nc4ccccn4c3N)c(O)c(O)cc2c1O , report the class its growth corresponds to.
**A:** low-valued

**Q:** Categorize the following entry: CC1(O)CCC2CC3OC3(C)CCC3OC3(C)C(O)CC1C2(C)C (stereo not given)
**A:** high-valued

**Q:** For this compound, which bin applies? CC(=O)OC(C(=O)c1ccccc1)c1ccccc1 (stereo not given)
**A:** high-valued

**Q:** Any idea which band O=C(O)C1(Cc2cccc(Nc3nccs3)n2)CCC(Oc2cccc(Cl)c2F)CC1 (stereo not given) is in?
**A:** mid-valued

**Q:** Class label required: COc1cccc(Nc2ncnn3ccc(CN4CC[C@@H](N)[C@H](O)C4)c23)c1
**A:** low-valued

**Q:** Bin? CCOC(=O)C1=C(C)NC(=O)NC1c1cc(=O)oc2ccc(C)cc12 (stereo not given)
**A:** high-valued

**Q:** Band for the recorded growth of CCOC(=O)Sc1ncnc2nc[nH]c12 ?
**A:** low-valued

**Q:** Band of NC1=Nc2cc(OCCCN3Cc4ccccc4C3)c(OCC3CC3)cc2C12CCCC2 ?
**A:** mid-valued

**Q:** Category lookup for the compound O=C(COc1cccc(/C=C2\Cc3ccc(Cl)cc3C2=O)c1)Nc1nccs1
**A:** mid-valued

**Q:** Would you mind sorting CC(=O)OCCC/C(=C\c1ccc2ccccc2c1)[N+](=O)[O-] into the appropriate category?
**A:** low-valued

**Q:** Kindly identify the class of CC(=O)c1c(C)c2cnc(Nc3ccc(N4CCNCC4)cn3)nc2n(C2CCCC2)c1=O .
**A:** mid-valued

**Q:** Field: class (growth) — entry: C=CCC(=O)N[C@H](/C=C/C(=O)O)Cc1ccc(-c2cc(Cl)cc(Cl)c2)cc1
**A:** mid-valued
